Origin of values: PubChem BioAssay (NCI)

Each entry below lists one item and its recorded growth inhibition value.
# protocol.text: NCI Yeast Anticancer Drug Screen. Data for the sgs1 mgt1 strain (AID 161);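 note: 0% = growth of cultures given vehicle only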
# condition.label: S. cerevisiae sgs1 mgt1 strain, at 50.0 µM, active compounds read high
The panel holds about 79,000 compounds, 15% with a hit somewhere; the sample as a whole holds those more often.
Expressed in %, but write only the number.

Take a look at these entries with their results.
* CC(=O)CC1CCC(CC(C)=O)CC1 (stereo not given) | -13.3
* CSC1=Nc2ccccc2N(C)c2c1c(-c1ccccc1)nn2C | 28.8
* O=c1ccnc2c1ccc1[nH]cccc12 | -13.9

What value of growth inhibition has been reported for the following molecule? `NNCCc1n[nH]c(=O)n1N` 9.55

Entry `COc1ccc(OC)c(NCc2ccccc2)c1` please -13.9

Entry `CCC(=O)OCCN(C)C` please 0.65

Entry O=C1CC2CCCCC2=C1O (stereo not given) please 14.1

Entry `Nc1ccc([N+](=O)[O-])c(Cl)c1` please -11

Entry `N#C/C(N)=C(/C#N)N=Cc1ccccc1` please 8.4
